method-notes: in vitro
condition-description: human
Description: Selectivity index, ratio of CC50 for cytotoxicity against HGF cells to CC50 for cytotoxicity against human Ca9-22 cells by MTT method
quantity-kind: selectivity ratio
# respond with the number and nothing more

// COc1cc(C2CC(c3ccc(F)cc3)=NN2c2ccc(S(N)(=O)=O)cc2)cc(OC)c1OC (stereo unspecified) : selectivity ratio value = 1.1

----------
Can you tell me Ki for the items I'm about to list?
Return type: number; implicit unit nM.

Readout Ki for CS(=O)(=O)Cc1cc(O)c(O)c(Br)c1Br , test system Carbonic anhydrase 2 (Homo sapiens), was 42.8

Readout Ki for O=C1/C(=C\c2ccc(O)c(CN3CCN(c4ccccc4F)CC3)c2)Cc2ccccc21 , test system Carbonic anhydrase 2 (Homo sapiens), was 51.1

Readout Ki for COc1ccccc1N1CCN(Cc2cc(/C=C3/Cc4ccccc4C3=O)ccc2O)CC1 , test system Carbonic anhydrase 2 (Homo sapiens), was 51.1

Readout Ki for O=C1/C(=C\c2ccc(O)c(CN3CCN(Cc4ccccc4)CC3)c2)Cc2ccccc21 , test system Carbonic anhydrase 2 (Homo sapiens), was 51.1

Readout Ki for O=C1/C(=C\c2ccc(O)c(CN3CCN(c4ccccc4)CC3)c2)Cc2ccccc21 , test system Carbonic anhydrase 2 (Homo sapiens), was 51.1

Readout Ki for O=C1/C(=C\c2ccc(O)c(CN3CCN(c4ccc(F)cc4)CC3)c2)Cc2ccccc21 , test system Carbonic anhydrase 2 (Homo sapiens), was 51.1

Readout Ki for CS(=O)(=O)Cc1c(Br)c(O)c(O)c(Br)c1Br , test system Carbonic anhydrase 2 (Homo sapiens), was 42.8

----------
tested-on: UniProt P00918
quantity-kind: Ki

// NS(=O)(=O)c1ccc(CCn2c(SCC(=O)Nc3ccc(Cl)cc3)nc3ccccc3c2=O)cc1 : Ki value = 25.4 nM

// COc1cc([SeH])cc(OC)c1OC : Ki value = > 50000 nM

// NS(=O)(=O)c1ccc(N/C=C/C(=O)c2ccc(Br)cc2)cc1 : Ki value = 0.48 nM

// NS(=O)(=O)c1ccc(N/C=C/C(=O)c2ccc3ccccc3c2)cc1 : Ki value = 0.48 nM

// O=c1c2ccccc2nc(SCCN2CCCCC2)n1CCc1ccccc1 : Ki value = 14.2 nM

// NS(=O)(=O)c1ccc(N/C=C/C(=O)c2ccc(F)cc2)cc1 : Ki value = 0.48 nM

----------
method-notes: in vitro
condition-description: human
Description: Selectivity index, ratio of CC50 for cytotoxicity against HGF cells to CC50 for cytotoxicity against human HSC-2 cells by MTT method
quantity-kind: selectivity ratio
# respond with the number and nothing more

// COc1cc(C2CC(c3ccc(F)cc3)=NN2c2ccc(S(N)(=O)=O)cc2)cc(OC)c1OC (stereo unspecified) : selectivity ratio value = 1.1

----------
Quick note: these are Ki numbers for system: Carbonic anhydrase 4 (Homo sapiens, UniProt P22748)
Sequence (P22748 whole entry): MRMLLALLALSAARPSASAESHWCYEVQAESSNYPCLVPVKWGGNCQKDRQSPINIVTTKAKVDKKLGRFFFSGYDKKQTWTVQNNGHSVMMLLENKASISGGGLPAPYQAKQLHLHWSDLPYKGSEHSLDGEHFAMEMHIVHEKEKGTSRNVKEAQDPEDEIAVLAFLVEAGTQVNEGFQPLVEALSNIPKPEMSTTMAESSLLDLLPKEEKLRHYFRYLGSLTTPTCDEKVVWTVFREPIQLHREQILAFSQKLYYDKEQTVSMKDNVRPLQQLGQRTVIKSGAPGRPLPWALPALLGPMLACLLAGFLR

// NS(=O)(=O)c1ccc(N2C(=O)c3ccc(C(=O)O)cc3C2=O)cc1 : Ki value = 0.317 µM

// COC(=O)c1ccc2c(c1)C(=O)N(Cc1ccc(S(N)(=O)=O)cc1)C2=O : Ki value = 0.317 µM

// COC(=O)c1ccc2c(c1)C(=O)N(c1ccccc1)C2=O : Ki value = > 10 µM

// O=C(O)c1ccc(N2C(=O)c3ccc(C(=O)O)cc3C2=O)cc1 : Ki value = > 10 µM

// O=C(O)c1ccc2c(c1)C(=O)N(c1ccccc1)C2=O : Ki value = > 10 µM

// COC(=O)c1ccc2c(c1)C(=O)N(CCc1ccccc1)C2=O : Ki value = > 10 µM

----------
quantity-kind: pKi
// scale note: pKi = -log10(conc_M); give the bare number

Readout pKi for Brc1ccc(NN=C2C(c3ccccc3)=NN=C2c2ccccc2)cc1 , test system Carbonic anhydrase 2 (Homo sapiens, UniProt P00918), was 9.17

Readout pKi for CCn1nc(-c2ccccc2)c(/N=N/c2ccc(Br)cc2)c1-c1ccccc1 , test system Carbonic anhydrase 2 (Homo sapiens, UniProt P00918), was 9.17

Readout pKi for Cc1ccc(C)c(-n2nc(-c3ccccc3)c(/N=N/c3ccc(Br)cc3)c2-c2ccccc2)c1 , test system Carbonic anhydrase 2 (Homo sapiens, UniProt P00918), was 9.17

----------
tested-on: Carbonic anhydrase 2 (Homo sapiens)
quantity-kind: Ki

// COc1ccc(-c2ccc3c(c2)C=CCS(=O)(=O)O3)cc1 : Ki value = > 100 µM

// COc1ccc(-c2ccc3c(c2)OS(=O)(=O)CC=C3)cc1 : Ki value = > 100 µM

// CCOC(=O)c1ccc(-c2cccc3c2OS(=O)(=O)CC=C3)cc1 : Ki value = > 100 µM

// O=S1(=O)CC=Cc2cccc(-c3ccc(C(F)(F)F)cc3)c2O1 : Ki value = > 100 µM

// O=S1(=O)CC=Cc2cc(-c3ccc(F)cc3)ccc2O1 : Ki value = > 100 µM

// O=S1(=O)CC=Cc2cc(I)ccc2O1 : Ki value = > 100 µM

----------
Quick note: these are IC50 numbers for system: Carbonic anhydrase 9 (Homo sapiens, UniProt Q16790)

// NS(=O)(=O)c1ccc2[nH]c(-c3ccccn3)nc2c1 : IC50 value = > 360 nM

// Cn1c(-c2ccccn2)nc2cc(S(N)(=O)=O)ccc21 : IC50 value = 6.6 nM

// NS(=O)(=O)c1ccc2[nH]c(-c3ccccc3)nc2c1 : IC50 value = > 360 nM

// Cn1c(-c2ccc(Cl)cc2)nc2cc(S(N)(=O)=O)ccc21 : IC50 value = > 360 nM

// Cn1c(-c2ccc(Cl)cc2)nc2cc(C(=O)O)ccc21 : IC50 value = > 360 nM

----------
quantity-kind: pKi
// scale note: pKi = -log10(conc_M); give the bare number

Readout pKi for COc1ccc(/C=C2/SC(=O)N(CC(=O)O)C2=O)cc1 , test system Carbonic anhydrase 9 (Homo sapiens, UniProt Q16790), was 5.51

Readout pKi for C/C(=N\NC(=O)c1ccc(S(N)(=O)=O)cc1)c1ccc(N2C(=O)c3cc(Cl)c(Cl)cc3C2=O)cc1 , test system Carbonic anhydrase 9 (Homo sapiens, UniProt Q16790), was 6.77

Readout pKi for C/C(=N\NC(=O)c1ccc(S(N)(=O)=O)cc1)c1ccc(N2C(=O)c3c(Br)c(Br)c(Br)c(Br)c3C2=O)cc1 , test system Carbonic anhydrase 9 (Homo sapiens, UniProt Q16790), was 7.76

Readout pKi for CC(C)(C)OC(=O)C[C@H](Cc1ccccc1)C(=O)CCC(=O)NCc1ccc(S(N)(=O)=O)cc1 , test system Carbonic anhydrase 9 (Homo sapiens, UniProt Q16790), was 8.74

Readout pKi for C/C(=N\O)c1ccc(N2C(=O)c3cc(Cl)c(Cl)cc3C2=O)cc1 , test system Carbonic anhydrase 9 (Homo sapiens, UniProt Q16790), was 6.77

----------
Tested on: Ca9-22
method-notes: cells
Type: functional
condition-description: Homo sapiens, time 48 hrs
Description: Cytotoxicity against human Ca9-22 cells assessed as cell growth inhibition measured after 48 hrs by MTT assay
quantity-kind: CC50 (µM)
Return type: number; implicit unit µM.

// COc1cc(C2CC(c3ccccc3)=NN2c2ccc(S(N)(=O)=O)cc2)cc(OC)c1OC (centres undefined) : CC50 value = 6.3

// COc1cc(OC)c(C2CC(c3ccc(Cl)cc3)=NN2c2ccc(S(N)(=O)=O)cc2)cc1OC (centres undefined) : CC50 value = 6.3

// COc1ccc(C2CC(c3ccc(Br)cc3)=NN2c2ccc(S(N)(=O)=O)cc2)c(OC)c1 (centres undefined) : CC50 value = 15

// COc1ccc(C2CC(c3ccc(F)cc3)=NN2c2ccc(S(N)(=O)=O)cc2)c(OC)c1 (centres undefined) : CC50 value = 15

// COc1cc(OC)c(C2CC(c3ccccc3)=NN2c2ccc(S(N)(=O)=O)cc2)cc1OC (centres undefined) : CC50 value = 6.3

// COc1ccc(C2CC(c3ccccc3)=NN2c2ccc(S(N)(=O)=O)cc2)c(OC)c1OC (centres undefined) : CC50 value = 6.3

// COc1ccc(C2CC(c3ccc(C(F)(F)F)cc3)=NN2c2ccc(S(N)(=O)=O)cc2)c(OC)c1OC (centres undefined) : CC50 value = 6.3

// COc1cc(C2CC(c3ccc(Cl)cc3)=NN2c2ccc(S(N)(=O)=O)cc2)cc(OC)c1OC (centres undefined) : CC50 value = 6.3

// COc1ccc(C2CC(c3ccc(Cl)cc3)=NN2c2ccc(S(N)(=O)=O)cc2)c(OC)c1OC (centres undefined) : CC50 value = 6.3

----------
Quick note: these are Ki numbers for system: Carbonic anhydrase 2 (Homo sapiens, UniProt P00918)

// COC(=O)c1ccc2c(c1)C(=O)N(Cc1ccc(S(N)(=O)=O)cc1)C2=O : Ki value = 25.9 nM

// NS(=O)(=O)c1ccc(CN2C(=O)c3ccc(C(=O)O)cc3C2=O)cc1 : Ki value = 25.9 nM

// COC(=O)c1ccc2c(c1)C(=O)N(c1ccc(S(N)(=O)=O)cc1)C2=O : Ki value = 25.9 nM

// O=C(O)c1ccc2c(c1)C(=O)N(CCc1ccccc1)C2=O : Ki value = > 10000 nM

// CCOC(=O)c1ccc(N2C(=O)c3ccc(C(=O)OC)cc3C2=O)cc1 : Ki value = > 10000 nM

// CCOC(=O)c1ccc(N2C(=O)c3ccc(C(=O)O)cc3C2=O)cc1 : Ki value = > 10000 nM

// COC(=O)c1ccc2c(c1)C(=O)N(CCc1ccc(S(N)(=O)=O)cc1)C2=O : Ki value = 25.9 nM

// COC(=O)c1ccc2c(c1)C(=O)N(c1ccc(C(=O)O)cc1)C2=O : Ki value = > 10000 nM

// COC(=O)c1ccc2c(c1)C(=O)N(c1ccccc1)C2=O : Ki value = > 10000 nM

// O=C(O)c1ccc2c(c1)C(=O)N(Cc1ccccc1)C2=O : Ki value = > 10000 nM
